This collection of values is drawn from paper PMC11747885.

# reported viability at 30 µM; entries follow
Assay: Cell viability assay of HEK293 cells treated with inhibitors and menadione
Type: cell-based, human
Conditions: human, HEK293 cells, 30 µM compound, w/o Menadione, 20240515 plate 015, DMSO Ko no Mendione = 100
Provide the reading as a plain figure in %.

Nc1cc(Nc2ccc(NC(=O)c3ccc(Nc4ccnc5ccccc45)cc3)cc2)ccn1 [Compound 36] = 81.9
Nc1nccc(Nc2ccc(NC(=O)c3ccc(Nc4ncnc5ccccc45)cc3)cc2)n1 [Compound 47] = 77.7

Attention now shifts to the item below.
Could you share which viability at 30 µM value was measured for Cc1cc(Nc2ccc(NC(=O)c3ccc(Nc4ncnc5ccccc45)cc3)cc2)nc(N)n1 [Compound 45] ?
77.5

* * *

Target: Rlig1-AMP (Homo sapiens, UniProt Q8N999)
Construct: made in house; host or cells: E. coli BL21 (DE3), pET15b-Rlig1
Sequence (Q8N999 whole entry): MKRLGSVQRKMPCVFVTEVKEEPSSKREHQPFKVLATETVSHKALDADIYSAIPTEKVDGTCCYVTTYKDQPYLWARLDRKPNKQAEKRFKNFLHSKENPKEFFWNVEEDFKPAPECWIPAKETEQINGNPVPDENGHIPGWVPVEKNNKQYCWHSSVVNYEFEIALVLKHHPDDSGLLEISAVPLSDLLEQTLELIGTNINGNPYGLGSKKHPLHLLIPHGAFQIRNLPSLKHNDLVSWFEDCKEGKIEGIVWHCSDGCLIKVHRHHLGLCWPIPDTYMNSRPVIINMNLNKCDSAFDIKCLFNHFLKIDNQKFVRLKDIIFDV
Assay: FRET-based high-throughput screening of inhibitors for Rlig1-AMP
Assay type: biochemical
Settings: HTS hits; difference of raw data w/o and w enzyme
Non-standard residues stand in square brackets, D forms with d. Residues, ends and D or L forms follow the SMILES beside them. *: point of attachment. Sta = CC(C)C[C@H](N)[C@@H](O)CC(=O)O; Isovaleryl = CC(C)CC(=O)*
Is 1-D Distance at least 1000? Then yes (1). If not, no (0).

Solved entries:
CC(/C=C/C=C(\C)C(=O)O[C@@H]1O[C@H](CO)[C@@H](O)[C@H](O)[C@H]1O)=C\C=C\C=C(C)\C=C\C=C(/C)C(=O)O[C@@H]1O[C@H](CO[C@@H]2O[C@H](CO)[C@@H](O)[C@H](O)[C@H]2O)[C@@H](O)[C@H](O)[C@H]1O = yes (1)
CC(C)CC(=O)N[C@H](C(=O)N[C@H](C(=O)N[C@@H](CC(C)C)[C@@H](O)CC(=O)N[C@@H](C)C(=O)N[C@@H](CC(C)C)[C@@H](O)CC(=O)O)C(C)C)C(C)C [Pepstatin] (Isovaleryl-VV[Sta]A[Sta]-OH) = yes (1)
COc1nc(-c2cc(C)c(N[C@@H](C)c3ccc(F)cc3)nn2)ccc1-n1cnc(C)c1 = yes (1)
Cl.Cl.N=C(N)c1ccc2nc(-c3ccc(-c4nc5ccc(C(=N)N)cc5[nH]4)[se]3)[nH]c2c1 [DB1976 (dihydrochloride)] = no (0)
CC(=O)Nc1cc(Oc2ccc3c(C(=O)Nc4ccc(CN5CCN(C)CC5)c(C(F)(F)F)c4)cccc3c2)ncn1 = no (0)

Now for a further compound.
Determine whether this compound has 1-D Distance no lower than 1000: COS(=O)(=O)[O-].COc1cccc2c1nc1ccccc1[n+]2C
yes (1)

* * *

Molecular target: Rlig1-AMP (Homo sapiens, UniProt Q8N999)
Construct: made in house; host or cells: E. coli BL21 (DE3), pET15b-Rlig1
Assay: FRET-based high-throughput screening of inhibitors for Rlig1-AMP
Type: biochemical
Conditions: HTS hits; without enzyme
value_type: Raw data [w/o Enzym]
Kindly provide the number alone.

Below: 4 compounds and their reported Raw data [w/o Enzym].
O=C(O)c1cc(O)c2c(c1)[C@@H]([C@H]1c3cc(C(=O)O)cc(O)c3C(=O)c3c(O[C@@H]4O[C@H](CO)[C@@H](O)[C@H](O)[C@H]4O)cccc31)c1cccc(O[C@@H]3O[C@H](CO)[C@@H](O)[C@H](O)[C@H]3O)c1C2=O [Sennoside B] = 4706
NC[C@@H]1O[C@H](O[C@H]2[C@@H](O)[C@H](O[C@@H]3[C@@H](O)[C@H](N)C[C@H](N)[C@H]3O[C@H]3O[C@H](CO)[C@@H](O)[C@H](O)[C@H]3N)O[C@@H]2CO)[C@H](N)[C@@H](O)[C@@H]1O.O=S(=O)(O)O [Paromomycin (sulfate)] = 9664
CCn1c(=O)/c(=C2\Sc3ccccc3N2C)s/c1=C\c1cccc[n+]1CC.[Cl-] = 827
Cl.Cl.N=C(N)c1ccc2nc(-c3ccc(-c4nc5ccc(C(=N)N)cc5[nH]4)[se]3)[nH]c2c1 [DB1976 (dihydrochloride)] = 4703

May I ask what Raw data [w/o Enzym] has been recorded for CN(C)c1ccc2c(c1)Sc1cc(N(C)C)ccc1N2.CS(=O)(=O)O.CS(=O)(=O)O [Leucomethylene blue (mesylate)] ?
6227

* * *

Biological target: Rlig1-AMP (Homo sapiens)
Construct: made in house; host or cells: E. coli BL21 (DE3), pET15b-Rlig1
Experiment: FRET-based high-throughput screening of inhibitors for Rlig1-AMP
Assay type: biochemical
Settings: HTS hits; without enzyme
value_type: Raw data [w/o Enzym]
The response must contain the number and no unit.

C[n+]1ccc(/C=C/c2ccc3c(c2)c2cc(/C=C/c4cc[n+](C)cc4)ccc2n3CCOCCOCCOCC[N+]2(C)CCCCC2)cc1.[I-].[I-].[I-] = 4337

Name the recorded Raw data [w/o Enzym] for COc1nc(-c2cc(C)c(N[C@@H](C)c3ccc(F)cc3)nn2)ccc1-n1cnc(C)c1 .
10332

Would you kindly share the measured Raw data [w/o Enzym] for N[C@@H](Cc1cc(CP(=O)(O)O)cc(-c2ccccc2Cl)c1)C(=O)O ?
26550

I'd like to know its Raw data [w/o Enzym]. The compound in question is Cl[TeH]1(Cl)(Cl)OCCO1
6468

* * *

Target: Rlig1-AMP (Homo sapiens)
Construct: made in house; host or cells: E. coli BL21 (DE3), pET15b-Rlig1
Assay: FRET-based high-throughput screening of inhibitors for Rlig1-AMP
Format: biochemical
Conditions: sheet HTS hits; without enzyme
value_type: Raw data [w/o Enzym]
Give the figure only, with no unit attached.

Previously resolved entries follow.
C/C(=N\N=C(N)N)c1cc(NC(=O)CCCCCCCCC(=O)Nc2cc(/C(C)=N/N=C(N)N)cc(/C(C)=N/N=C(N)N)c2)cc(/C(C)=N/N=C(N)N)c1.Cl.Cl.Cl.Cl [Semapimod (tetrahydrochloride)] = 3850
C/C1=C2N=C(/C=C3N=C(/C(C)=C4\[N-]C(C(CC(N)=O)C4(C)CCC(=O)NCC(C)OP(=O)([O-])OC4C(CO)OC(n5cnc6cc(C)c(C)cc65)C4O)C4(C)N=C1C(CCC(N)=O)C4(C)CC(N)=O)C(CCC(N)=O)C\3(C)C)C(CCC(N)=O)C/2(C)CC(N)=O.Cl.[Co+3].[OH-] (stereo not shown) [Hydroxocobalamin (monohydrochloride)] = 5042
Cc1ncsc1-c1ccc(CNC(=O)[C@@H]2C[C@@H](O)CN2C(=O)[C@@H](NC(=O)CCN)C(C)(C)C)cc1.Cl.Cl [(S,R,S)-AHPC-C2-NH2 (dihydrochloride)] = 10911

Given the molecule C=CC1=C(C)c2cc3[n-]c(cc4nc(cc5[n-]c(cc1n2)c(C)c5C=C)C(C)=C4CCC(=O)O)c(CCC(=O)O)c3C.[Cl-].[Fe+3] , what is its reported Raw data [w/o Enzym]?
6122

* * *

Biological target: Rlig1-AMP (Homo sapiens, UniProt Q8N999)
Construct: made in house; host or cells: E. coli BL21 (DE3), pET15b-Rlig1
Assay: FRET-based high-throughput screening of inhibitors for Rlig1-AMP
Format: biochemical
Details: HTS hits; without enzyme
Returns one of met or not met; met when Raw data [w/o Enzym] is >= 9000.

c1cc(-c2cnn3cc(-c4ccc(N5CCNCC5)cc4)cnc23)c2cccnc2c1 = not met

Given O=c1[nH]c(=O)c2ccccc2[nH]1 , state whether its Raw data [w/o Enzym] is at least 9000.
met

Identify whether the reported Raw data [w/o Enzym] of the following molecule is 9000 or greater: Cl.NC(CO)(CO)CCc1ccc(Sc2cccc(OCc3ccccc3)c2)cc1Cl [Mocravimod (hydrochloride)]
not met

Identify whether the reported Raw data [w/o Enzym] of the following molecule is 9000 or greater: CN1CCC(Nc2nc(Nc3ccc(Oc4ccccc4)cc3)c3c(=O)[nH]cc(Br)c3n2)CC1
not met

Please tell me: is the molecule CC(/C=C/C=C(\C)C(=O)O[C@@H]1O[C@H](CO)[C@@H](O)[C@H](O)[C@H]1O)=C\C=C\C=C(C)\C=C\C=C(/C)C(=O)O[C@@H]1O[C@H](CO[C@@H]2O[C@H](CO)[C@@H](O)[C@H](O)[C@H]2O)[C@@H](O)[C@H](O)[C@H]1O at or over 9000 in terms of Raw data [w/o Enzym]?
not met

Please indicate if the recorded Raw data [w/o Enzym] for CC1(C)CCC(C)(C)c2cc(NC(=O)c3ccc(C(=O)O)cc3)ccc21 meets or exceeds 9000.
met

# bool: Raw data [w/o Enzym] of Cl.O=C1NCC2(CCN(CCc3ccccc3)CC2)O1 [Fenspiride (hydrochloride)] >= 9000
met

* * *

Experiment: Cell viability assay of HEK293 cells treated with inhibitors and menadione
Format: cell-based, human
Conditions: human, HEK293 cells, 7.5 µM compound, w/o Menadione, 20240508 plate 013, DMSO Ko no Mendione = 100
value_type: viability at 7.5 µM (%)
Provide only the numeric value, understood in %.

Here's what some known entries look like.
Cc1cc(Nc2ccc(NC(=O)c3ccc(Nc4ncnc5ccccc45)cc3)cc2)nc(N)n1 [Compound 45] = 99.9
Nc1nccc(Nc2ccc(NC(=O)c3ccc(Nc4ncnc5ccccc45)cc3)cc2)n1 [Compound 47] = 97.7

Now turn to the next compound.
What does the data say about its viability at 7.5 µM? Entry: Nc1cc(Nc2ccc(NC(=O)c3ccc(Nc4ccnc5ccccc45)cc3)cc2)ccn1 [Compound 36]
101
